# system.under.test: c-Met (cytoplasmic domain) (Homo sapiens, UniProt P08581)
# Construct: 10 ng/mL c-Met (cytoplasmic domain, Invitrogen Corporation #PV3143); purchased Invitrogen Corporation PV3143
# Sequence (P08581 956-1390 limits assumed): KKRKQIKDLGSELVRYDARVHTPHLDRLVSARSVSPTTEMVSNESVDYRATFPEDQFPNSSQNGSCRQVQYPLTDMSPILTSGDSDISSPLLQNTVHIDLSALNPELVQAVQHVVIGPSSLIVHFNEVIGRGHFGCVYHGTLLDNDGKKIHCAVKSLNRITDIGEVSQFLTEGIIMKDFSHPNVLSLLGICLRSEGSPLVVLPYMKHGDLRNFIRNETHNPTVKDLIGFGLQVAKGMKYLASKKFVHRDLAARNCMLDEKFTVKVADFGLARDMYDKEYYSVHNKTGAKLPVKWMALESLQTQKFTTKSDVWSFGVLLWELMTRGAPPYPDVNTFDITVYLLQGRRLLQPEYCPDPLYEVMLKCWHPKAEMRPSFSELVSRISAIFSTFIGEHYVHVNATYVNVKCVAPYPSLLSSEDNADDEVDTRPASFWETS
# assay: c-Met Kinase Assay (same methods as for ALK, with modifications)
# Type: biochemical
# run.conditions: 1 μM ATP (Km level); read-out: cMet Activity (c-Met Kinase Inhibition, IC50)
pIC50: −log10 of the molar value.
Kindly supply the reported pIC50 values for the records listed here.

Req: Name the recorded pIC50 of the item CS(=O)(=O)N[C@@H]1CCCC[C@H]1Nc1nc(Nc2ccc3c(c2)CCC(NCC(F)F)CC3)ncc1Cl (stereo partly drawn) in your answer.
Resp: 6.00 to 7.00

Req: Name the recorded pIC50 of the item COc1c(Nc2ncc(Cl)c(N[C@H]3[C@@H](C(N)=O)[C@@H]4C=C[C@H]3C4)n2)ccc2c1CCC(=O)CC2 in your answer.
Resp: < 5.00

Req: Name the recorded pIC50 of the item CNC(=O)c1ccccc1Nc1nc(Nc2ccc3c(c2)CN(CCO)CCS3)ncc1Cl in your answer.
Resp: > 7.00

Req: Name the recorded pIC50 of the item COc1cc(N2CCOCC2)ccc1Nc1nc(Nc2ccc3c(c2)CCCC(=O)N3C(C)C)ncc1Cl in your answer.
Resp: 5.00 to 6.00

Req: Name the recorded pIC50 of the item COc1ccc(Nc2ncc(Cl)c(Nc3ccccc3S(=O)(=O)N(C)C)n2)c2c1CCCC(N1CCOCC1)C2 (stereo not drawn) in your answer.
Resp: < 5.00

Req: Name the recorded pIC50 of the item COc1cc2c(cc1Nc1ncc(Cl)c(Nc3ccccc3S(=O)(=O)N(C)C)n1)CCN(CC(F)F)CC2 in your answer.
Resp: < 5.00

Req: Name the recorded pIC50 of the item COCCN1CCc2ccc(Nc3ncc(Cl)c(Nc4ccccc4-c4nc(C(F)(F)F)c[nH]4)n3)cc2CC1 in your answer.
Resp: 6.00 to 7.00

Req: Name the recorded pIC50 of the item NC(=O)C1C2C=CC(C2)C1Nc1nc(Nc2ccc3c(c2)CCC(N2CCOCC2)CC3)ncc1Cl (stereo not drawn) in your answer.
Resp: 6.00 to 7.00

Req: Name the recorded pIC50 of the item CCN1CCN(CC)c2cc(Nc3ncc(Cl)c(Nc4ccc(OC)cc4-n4cccn4)n3)ccc2C1 in your answer.
Resp: 5.00 to 6.00

Req: Name the recorded pIC50 of the item CNC(=O)CN1CCc2cc(Nc3ncc(F)c(Nc4ccc(N5CCN(C)CC5)cc4OC)n3)c(OC)cc2CC1 in your answer.
Resp: < 5.00

Req: Name the recorded pIC50 of the item CCN1CCN(CC)c2cc(Nc3ncc(Cl)c(Nc4ccc5c(c4)CN(CCOC)CCS5)n3)ccc2C1 in your answer.
Resp: 5.00 to 6.00

Req: Name the recorded pIC50 of the item CC1(C)CCCOc2c(Nc3ncc(Cl)c(Nc4ccccc4C(=O)NCCC#N)n3)cccc21 in your answer.
Resp: < 5.00

Req: Name the recorded pIC50 of the item CCN(CCO)Cc1cc(Nc2nc(Nc3ccc4c(c3)N(CC)CCN(CC)C4)ncc2Cl)ccc1F in your answer.
Resp: < 5.00

Req: Name the recorded pIC50 of the item COc1ccc(Nc2nc(Nc3ccc4c(c3)CCN(CC3COCCO3)CC4)ncc2Cl)c(-n2cccn2)c1 (stereo not drawn) in your answer.
Resp: 6.00 to 7.00

Req: Name the recorded pIC50 of the item COCC(COC)N1CCc2cc(Nc3ncc(Cl)c(NC4(CC(N)=O)CCCCC4)n3)c(OC)cc2CC1 in your answer.
Resp: < 5.00
